Reported MIC, Staphylococcus aureus ATCC 6538P.
// note: answer is a bare numeric in µM

MOLECULE	READOUT UNITS	MIC
CC(C)C[C@H](NC(=O)[C@H](Cc1c[nH]c2ccccc12)NC(=O)[C@H](CCCCN)NC(=O)[C@H](Cc1ccccc1)NC(=O)[C@H](C)NC(=O)[C@H](Cc1c[nH]c2ccccc12)NC(=O)[C@H](CCCCN)NC(=O)[C@H](C)NC(=O)[C@@H](N)Cc1ccccc1)C(=O)N[C@@H](CCCCN)C(=O)N[C@@H](CCCCN)C(N)=O	µM	4.34

Okay, now this molecule:
Prompt: Consider the molecule CC[C@H](C)[C@H](NC(=O)[C@H](C)NC(=O)[C@H](CC(C)C)NC(=O)[C@H](CS)NC(=O)[C@H](Cc1cnc[nH]1)NC(=O)[C@H](C)NC(=O)[C@H](C)NC(=O)[C@H](CS)NC(=O)[C@@H](N)CC(C)C)C(=O)NCC(=O)N[C@@H](CCCN=C(N)N)C(=O)N[C@@H](CCCN=C(N)N)C(N)=O [LCAAHCLAIGRR] tested on Staphylococcus aureus ATCC 6538P; state its MIC.
Completion: 14
